Cited source: PubChem BioAssay

# subjectOfTest: NADPH oxidase 4 (Homo sapiens)
# assayRemarks: NOX4-dependent H2O2 signal modulators, primary screen, NOX inhibitor project, cell-based, HEK293-NOX4, tetracycline-induced, Amplex Red fluorescence (AID 1160)
# conditionsUsed: 45 min, higher = more signal, called active from +8 up or from −8 down

molecule	z-score
COC(=O)CC=C[C@@H](C)[C@@H](C=NO[C@H](C)c1cn([C@@H]2COC[C@H]2O)nn1)OC	0.488
CCOC(=O)CCN1C(=O)[C@H]2[C@H]3[C@H](O)[C@H](O)CC(=NOC[C@@H](O)COCc4ccco4)[C@H]3CC[C@H]2C1=O	0.0781
O=C1c2ccccc2[C@@]2(Cc3ccccc3N(C3CC3)C2=O)[C@H](c2ccc(CO)cc2)N1Cc1ccccc1C(F)(F)F	-1.4
C=CCOC(=O)[C@H]1[C@@H]2C(=O)O[C@@H](c3ccccc3)[C@@H](c3ccccc3)N2[C@@H](c2ccc(OCCOC(=O)[C@H]3C[C@H]4C(=O)N[C@@H](Cc5ccccc5)C(=O)N4[C@H]3c3ccc(O)cc3)cc2)[C@]12C(=O)Nc1ccccc12	0.898
CN1C(=O)C2C(C1=O)C1C=C(CCCO)C2C(c2ccc(CN3CCCC3)cc2)N1C (configuration not stated)	-1.25
CCOC(=O)C1=CCC(c2cc3ccccc3[nH]2)NC1 (configuration not stated)	0.0972
COC(=O)C1=C(C)N(Cc2ccccc2)[C@]23O[C@](C(=O)OC)(C(=O)N2[C@@H]1c1ccccc1)[C@H]1CCOC(=O)[C@H]13	0.805

----------
# System: Sonic hedgehog protein (Shh)
# assayRemarks: small-molecule binders of Shh protein, primary screen, biochemical, small-molecule microarray, 635/667 nm fluorescence (AID 1151);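 also: Shh protein binding to compounds spotted on small-molecule microarray slides; score combines spot fluorescence intensity with signal-to-noise across triplicate slides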
# conditionsUsed: small-molecule microarray binding, 635 nm fluorescence; higher = more signal
Label scheme for composite z-score: lower than 1 is no, 1 and above is yes.

molecule	labelClass
CN1C(=O)C2C=CC(C(O)C(c3ccccc3)c3ccccc3)N(NC(=O)OC(C)(C)C)C2C1=O (centres undefined)	no
COc1ccc(CCNC(=O)[C@@H]2c3ccccc3C(=O)N(c3ccc(C)cn3)[C@H]2c2ccc(CO)cc2)cc1	no
Cc1ccc(C2CC=C(C(=O)O)CN2S(=O)(=O)c2ccc(C)cc2)cc1 (centres undefined)	no
COc1ccc(O[C@@H]2[C@H](O)CO[C@H]2C=CC#Cc2ccccc2)cc1	no
O=C1[C@H]2[C@H]3[C@H](O)[C@H](O)CC(=NOC[C@@H](O)COCc4ccco4)[C@H]3CC[C@H]2C(=O)N1c1cccc(Oc2ccccc2)c1	no
COC(=O)C1(C)C=C2C(=C(c3ccccc3)C(=O)C2C)CN1 (centres undefined)	no
O=C(NN=C1C[C@@H](O)[C@@H](O)[C@@H]2[C@@H]3C(=O)N(c4cccc(Oc5ccccc5)c4)C(=O)[C@@H]3CC[C@H]12)OCc1ccccc1	no
CC1CC/C=C\[C@H]2OC34C=CCN(C(C)C)C(=O)[C@H]3N(CCCO)C(=O)[C@@H]4C2C(=O)O1 (some centres undefined)	no
COCCOC(=O)N1C(=O)[C@@]2(c3cc(C#CCNC(N)=O)ccc31)[C@H](c1ccc(O)cc1)N1[C@H](c3ccccc3)[C@H](c3ccccc3)OC(=O)[C@H]1[C@@H]2C(=O)N1CCCCCCC1	yes
COC(=O)[C@]1(CO)N=C(c2ccc(OCCCO)cc2)O[C@@H]1c1ccccc1N=[N+]=[N-]	yes
CC(C)(C)N1C(=O)[C@H]2[C@H]3[C@H](O)[C@H](O)CC(=NOCc4ccccc4)[C@@H]3CC[C@H]2C1=O	yes
C=C(/C(=C/C[C@@H](OC(=O)c1ccncc1)c1ccc(OCCO)cc1)c1cnc2ccccc2c1)C(C)C	yes
CO[C@H]1O[C@H](CO)[C@@H](OC(=O)Nc2ccc(C#N)cc2)[C@H](OC(=O)c2cc3ccccc3[nH]2)[C@H]1OC(=O)c1cc2ccccc2[nH]1	no
Cc1ccc(S[C@]2(C(=O)NCC(F)(F)F)CC(=O)N(Cc3ccccc3Cl)[C@@H]2c2ccc(CO)cc2I)cc1	no
CC(C)C[C@@H]1NC(=O)[C@H]2C[C@@H](C(=O)NCCCCCCN(C)C)[C@@H](c3cccc(OCCO)c3)N2C1=O	yes
CCOC(=O)C[C@H]1[C@H](OC(=O)c2ccc(C(=O)c3ccccc3)cc2)[C@@H](NC(=O)c2ccc(-c3ccccc3)cc2)c2cc(OCCCO)ccc2N1C(=O)c1ccc2ccccc2n1	yes
CCN1C(=O)[C@H]2[C@H]3[C@H](O)[C@H](O)CC(=NOCC=C(C)CCC=C(C)C)[C@H]3CC[C@H]2C1=O	yes
C=CCC(OC(C)=O)[C@@H]1[C@@H](N(Cc2cc3ccccc3o2)C(=O)Cc2ccc(F)cc2)c2cc(OCCCO)ccc2N1C(=O)Cc1ccc(OC)cc1 (some centres undefined)	no
CC(=O)OC[C@H]1O[C@H](C#CCCCc2ccccc2)C=C[C@@H]1OC(C)=O	yes
CCc1cc2c(nc1CC)CCN(CCC(C)=NOC(C)CN1CCCc3nc(C)c(C)cc31)C2 (centres undefined)	yes
COC(=O)C1=C(C)[C@@H](O)[C@@H](C)[C@H](c2c(OC)c(OC)c(C)c(OC)c2OC)O1	no
CCOC(=O)[C@H](Cc1ccccc1)NC(=O)CCC1CC(OC(=O)NCCc2ccc(F)cc2)CC2(CCCC(COC(=O)NCC(c3ccccc3)c3ccccc3)O2)O1 (some centres undefined)	no
NC(=O)NCC#Cc1ccc2c(c1)[C@]1(C(=O)N2)[C@H](c2ccc(O)cc2)N2[C@H](c3ccccc3)[C@H](c3ccccc3)OC(=O)[C@H]2[C@@H]1C(=O)N1CCCCCCC1	yes
CCOC(=O)[C@H](CC(C)C)NC(=O)CCC1CC(OC(=O)NCc2cccc3ccccc23)CC2(CCCC(COC(=O)NCCN3CCOCC3)O2)O1 (some centres undefined)	no
COc1ccccc1CN1C(=O)c2ccccc2[C@@]2(Cc3ccccc3N(C(C)C)C2=O)[C@@H]1c1ccc(CO)cc1	no
CC(C)=NOCc1ccc(-c2cc(-c3ccccc3)no2)cc1	no
COC(=O)[C@H](C)NC(=O)CCC1CC(OC(=O)NCCc2ccc(F)cc2)CC2(CCCC(COC(=O)NCC(c3ccccc3)c3ccccc3)O2)O1 (some centres undefined)	no
COCCCNC(=O)[C@]1(CCC(=O)OC(C)(C)C)N=C(c2ccc(OCCCO)cc2)O[C@@H]1c1ccccc1N=[N+]=[N-]	no
CO[C@H]1COC(=O)CC=C[C@H](C)[C@@H](NS(=O)(=O)c2ccc(C)cc2)COC(=O)CC=C[C@@H]1C	no

----------
# assayRemarks: small-molecule microarray binders of probe aEGFR, primary screen, biochemical, biotinylated probe, 635/667 nm fluorescence (AID 1097);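 also: probe is a biotinylated anti-EGFR antibody binding compounds printed on slides; score combines fluorescence near 667 nm and signal to noise of each spot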
# conditionsUsed: higher = more signal
composite z-score: recorded values

compound	composite z-score
CO[C@H]1COC(=O)CC=C[C@H](C)[C@@H](NS(=O)(=O)c2ccc(C)cc2)COC(=O)CC=C[C@@H]1C	-0.12
O=C1[C@H]2[C@H]3[C@H](O)[C@H](O)CC(=NOC[C@@H](O)COCc4ccco4)[C@H]3CC[C@H]2C(=O)N1C1CCCCC1	-0.0141
COc1ccc([Si](C)(C)[C@H]2[C@H](CC(=O)N3CCC[C@H]3CO)O[C@@]3(C(=O)N(Cc4cccc(N5C(=O)COc6ccccc65)c4)c4ccccc43)[C@@H]2C)cc1	-0.142
COC(=O)[C@H](C)NC(=O)CCC1CC(OC(=O)NCc2cccc3ccccc23)CC2(CCCC(COC(=O)NCC3CCCCC3)O2)O1 (some centres undefined)	0.0278

----------
# System: Noggin (protein binding on small-molecule microarray)
# assayRemarks: Noggin binders on small-molecule microarray, primary screen, biochemical, 635/667 nm fluorescence (AID 1095);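 also: score merges 667 nm feature fluorescence with signal to noise over triplicate slides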
# conditionsUsed: 635 nm fluorescence, higher = more signal
Listing: composite z-score of selected molecules

molecule	composite z-score
C#C[C@@H](CC)O[Si](C#Cc1ccc(Oc2ccccc2)cc1)(C(C)C)C(C)C	0.269
c1ccc(C2NCCc3c2[nH]c2ccccc32)cc1 (stereo not drawn)	0.388
[N-]=[N+]=Nc1ccccc1C[C@@]1(C(N)=O)N=C(c2ccc(OCCCO)cc2)O[C@@H]1c1ccccc1	-0.754
CC(C)CN1CCc2nc(-c3ccccc3)c3c(c2CC1)CO[C@@H](C)C3	0.364
COCCNC(=O)OCC1CCCC2(CC(OC(=O)NCCc3ccc(F)cc3)CC(CCC(=O)N[C@@H](C)C(=O)OC)O2)O1 (stereo partly drawn)	0.403
COCCCNC(=O)[C@]1(CCC(=O)OC(C)(C)C)N=C(c2ccc(OCCCO)cc2)O[C@@H]1c1ccccc1N=[N+]=[N-]	0.778
N#Cc1ccc(NN2C(C(O)c3cccc4ccccc34)C=CC3C(=O)N(c4ccccc4)C(=O)C32)cc1 (stereo not drawn)	0.157
CCN1C(=O)[C@H]2[C@H]3[C@H](O)[C@H](O)CC(=NOC[C@@H](C)[C@H](OCc4ccccc4)C(C)C)[C@@H]3CC[C@H]2C1=O	0.355
